Origin of measurements: patent US20240059759A1

Test System: CoV-2 (SARS-CoV-2)

Binder: vhh_tstrep_sars2_pjl1_L_46 (VHH) VHH: QVQLQESGGGLVQAGGSLRLSCAASGRTFSEYAMGWFRQAPGKEREFVATISWSGGSTYYTDSVKGRFTISRDNAKNTVYLQMNSLKPDDTAVYYCAAAGLGTVVSEADYDYDYWGQGTQVTVSS
xmid (log10): 1.65
//
Binder: vhh_tstrep_sars2_pjl1_L_40 (VHH) VHH: QVQLQESGGGLVQAGGSLRLSCAASGRTFSEYAMGWFRQAPGKEREFVATISWSGGSTYYTASVKGRFTISRDNAKNTVYLQMNSLKPDDTAVYYCAAAGLGTVVSEWDYDYDYWGQGTQVTVSS
xmid (log10): -0.664
//
Binder: vhh_tstrep_sars2_pjl1_L_27 (VHH) VHH: QVQLQESGGGLVQAGGSLRLSCAASGRTFSEYAMGWFRQAPGKEREFVATISWSGGSTYYTDSVKGRFTISRDNAKNTVYLQMNSLKPDDTAVYYCAAAGLATVVSEWDYDYDYWGQGTQVTVSS
xmid (log10): 0.178
//
Binder: vhh_tstrep_sars2_pjl1_L_47 (VHH) VHH: QVQLQESGGGLVQAGGSLRLSCAASGRTFSEYAMGWFRQAPGKEREFVATISWSGGSTYYTDSVKGRFTISRDNAKNTVYLQMNSLKPDDTAVYYCAAAGLGTVVSEWDYDADYWGQGTQVTVSS
xmid (log10): -0.708
//
Binder: vhh_tstrep_sars2_pjl1_L_38 (VHH) VHH: QVQLQESGGGLVQAGGSLRLSCAASGRTFSEYAMGWFRQAPGKEREFVATISWSGGSTYYTDSVKGRFTISRDNAKNTVYLQMNSLKPDDTAVYYCAAAGLGTVVSEWAYDYDYWGQGTQVTVSS
xmid (log10): -0.286
